- assay-target: T1, 4H2673-bH
- T1 chain: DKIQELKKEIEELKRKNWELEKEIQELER
- method: two-hybrid library CCNG1;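 further: natural log of median RNA to DNA barcode read ratio; higher means stronger binding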
For each of the binders below, state its interaction score.
# output: bare number, no unit

Notebook: DKIQELKKEIEELKRKNWELEKEIQELER [4H2673-bH] , interaction score read as -0.111

Documented interaction score of DEIQELEKEIEELKRKNWELEKKIQELKR [4H118-bH] : 1.9

get_value(item= DENQELEKENEELEREIWELEKKIQELKR [4H1158-bH] , readout=interaction score) returns 0.836

The recorded interaction score for DENQELEKEIEELERKNWELKKEIQELER [4H1081-bH] is -0.0547

binder DEIQELEKEIEELKRKIWELKKKNQELKR [4H112-bH] , interaction score observed: 0.53

// recorded interaction score for DKIQQLEQKNQELEQKIQELKWEIQELEQ [4H2473-bN] : 0.46

Lab book: interaction score of DKIQELKKEIEELKREIWELEKENQELER [4H2627-bH] noted as 0.273
